- System name: Pseudomonas fluorescens KMO (PfKMO) (Pseudomonas fluorescens, UniProt Q84HF5, C252S/C461S)
- Construct: made in house; host or cells: E. coli BL21 (DE3)
- Sequence (Q84HF5 whole entry C252S/C461S): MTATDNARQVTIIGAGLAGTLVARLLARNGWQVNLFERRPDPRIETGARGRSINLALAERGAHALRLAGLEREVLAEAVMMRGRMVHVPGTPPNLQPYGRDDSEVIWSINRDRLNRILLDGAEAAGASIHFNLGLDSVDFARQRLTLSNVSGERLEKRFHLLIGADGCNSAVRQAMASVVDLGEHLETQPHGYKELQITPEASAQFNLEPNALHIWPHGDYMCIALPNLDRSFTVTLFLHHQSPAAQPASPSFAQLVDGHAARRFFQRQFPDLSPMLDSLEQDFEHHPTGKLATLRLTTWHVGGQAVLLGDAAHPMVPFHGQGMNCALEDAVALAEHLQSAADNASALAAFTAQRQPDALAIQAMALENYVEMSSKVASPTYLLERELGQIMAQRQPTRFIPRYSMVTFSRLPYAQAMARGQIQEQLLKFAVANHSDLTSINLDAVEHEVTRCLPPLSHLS
- Procedure details: biochemical
pIC50: −log10 of the molar value.
Endpoint name: pIC50

Molecule: O=C(O)c1ccc(-c2ccc(Cl)c(Cl)c2)o1 [compound 13]
System name: Pseudomonas fluorescens KMO (PfKMO) (Pseudomonas fluorescens, UniProt Q84HF5, C252S/C461S)
Qualifying sign: =
Value reported: 6.40
--
Molecule: O=C(O)c1ccc(-c2ccc(F)c(Cl)c2)o1 [compound 18]
System name: Pseudomonas fluorescens KMO (PfKMO) (Pseudomonas fluorescens, UniProt Q84HF5, C252S/C461S)
Qualifying sign: =
Value reported: 5.62
--
Molecule: Cc1cc2c(c(C)c1Cl)N(CC(=O)OC(C)C)C(=O)CO2 [1c]
System name: Pseudomonas fluorescens KMO (PfKMO) (Pseudomonas fluorescens, UniProt Q84HF5, C252S/C461S)
Qualifying sign: <
Value reported: 3.52
--
Molecule: Cn1c(C(=O)N[C@@H](C(=O)O)c2ccccc2)cc2cc(F)ccc21 [compound 5]
System name: Pseudomonas fluorescens KMO (PfKMO) (Pseudomonas fluorescens, UniProt Q84HF5, C252S/C461S)
Qualifying sign: =
Value reported: 3.91
--
Molecule: O=C(O)c1ccc(-c2ccc(Cl)cc2Cl)o1 [compound 16]
System name: Pseudomonas fluorescens KMO (PfKMO) (Pseudomonas fluorescens, UniProt Q84HF5, C252S/C461S)
Qualifying sign: =
Value reported: 4.15
--
Molecule: O=C(O)[C@@H]1C[C@H]1C(=O)c1ccc(Cl)c(Cl)c1 [UPF648, reference compound]
System name: Pseudomonas fluorescens KMO (PfKMO) (Pseudomonas fluorescens, UniProt Q84HF5, C252S/C461S)
Qualifying sign: =
Value reported: 6.92
--
Molecule: Cn1c(C(=O)N[C@@H](C(=O)O)c2ccccc2)cc2cc(Cl)ccc21 [compound 4]
System name: Pseudomonas fluorescens KMO (PfKMO) (Pseudomonas fluorescens, UniProt Q84HF5, C252S/C461S)
Qualifying sign: =
Value reported: 4.22
--
Molecule: Oc1ccc(-c2csc3nc(-c4ccccc4)nn23)c(O)c1 [compound 3]
System name: Pseudomonas fluorescens KMO (PfKMO) (Pseudomonas fluorescens, UniProt Q84HF5, C252S/C461S)
Qualifying sign: =
Value reported: 4.13
--
Molecule: Cc1cc2c(c(C)c1Cl)N(CC(N)=O)C(=O)CO2 [1g]
System name: Pseudomonas fluorescens KMO (PfKMO) (Pseudomonas fluorescens, UniProt Q84HF5, C252S/C461S)
Qualifying sign: <
Value reported: 3.52
--
Molecule: O=C(O)c1ccc(-c2ccc(Br)c(Cl)c2)o1 [compound 19]
System name: Pseudomonas fluorescens KMO (PfKMO) (Pseudomonas fluorescens, UniProt Q84HF5, C252S/C461S)
Qualifying sign: =
Value reported: 6.15
--
Molecule: CC(CSc1ccc(Cl)cc1)C(=O)O (stereo not drawn) [compound 6]
System name: Pseudomonas fluorescens KMO (PfKMO) (Pseudomonas fluorescens, UniProt Q84HF5, C252S/C461S)
Qualifying sign: =
Value reported: 4.07
--
Molecule: O=C(O)c1ccc(-c2cccc(Cl)c2)o1 [compound 17]
System name: Pseudomonas fluorescens KMO (PfKMO) (Pseudomonas fluorescens, UniProt Q84HF5, C252S/C461S)
Qualifying sign: =
Value reported: 4.80
--
Molecule: CCOC(=O)CN1C(=O)COc2cc(C)c(Cl)c(C)c21 [1b]
System name: Pseudomonas fluorescens KMO (PfKMO) (Pseudomonas fluorescens, UniProt Q84HF5, C252S/C461S)
Qualifying sign: <
Value reported: 3.52
--
Molecule: O=C(O)c1ccc(-c2cc(C(F)(F)F)ccc2Cl)o1 [compound 12]
System name: Pseudomonas fluorescens KMO (PfKMO) (Pseudomonas fluorescens, UniProt Q84HF5, C252S/C461S)
Qualifying sign: =
Value reported: 4.27
--
Molecule: CNC(=O)CN1C(=O)COc2cc(C)c(Cl)c(C)c21 [1f]
System name: Pseudomonas fluorescens KMO (PfKMO) (Pseudomonas fluorescens, UniProt Q84HF5, C252S/C461S)
Qualifying sign: <
Value reported: 3.52
--
Molecule: Cc1cc2c(c(C)c1Cl)N(CC(=O)N(C)C)C(=O)CO2 [1e]
System name: Pseudomonas fluorescens KMO (PfKMO) (Pseudomonas fluorescens, UniProt Q84HF5, C252S/C461S)
Qualifying sign: <
Value reported: 3.52
--
Molecule: O=C(O)c1ccc(-c2ccccc2C(F)(F)F)o1 [compound 11]
System name: Pseudomonas fluorescens KMO (PfKMO) (Pseudomonas fluorescens, UniProt Q84HF5, C252S/C461S)
Qualifying sign: =
Value reported: 4.14
--
Molecule: Cc1ccc2c(c1)cc(C(=O)N[C@@H](C(=O)O)c1ccccc1)n2C [compound 7]
System name: Pseudomonas fluorescens KMO (PfKMO) (Pseudomonas fluorescens, UniProt Q84HF5, C252S/C461S)
Qualifying sign: =
Value reported: 4.00
--
Molecule: Cc1cc2c(c(C)c1Cl)N(Cc1nn[nH]n1)C(=O)CO2 [1h]
System name: Pseudomonas fluorescens KMO (PfKMO) (Pseudomonas fluorescens, UniProt Q84HF5, C252S/C461S)
Qualifying sign: =
Value reported: 4.77
--
Molecule: COC(=O)CN1C(=O)COc2cc(C)c(Cl)c(C)c21 [1a]
System name: Pseudomonas fluorescens KMO (PfKMO) (Pseudomonas fluorescens, UniProt Q84HF5, C252S/C461S)
Qualifying sign: <
Value reported: 3.30
--
Molecule: O=C(O)CCc1ccc(-c2cccs2)n1-c1ccc(Br)cc1 [compound 2]
System name: Pseudomonas fluorescens KMO (PfKMO) (Pseudomonas fluorescens, UniProt Q84HF5, C252S/C461S)
Qualifying sign: =
Value reported: 3.89
--
Molecule: O=C(Nc1ccccc1C(=O)O)c1ccc(-c2ccc(Cl)cc2Cl)o1 [compound 10]
System name: Pseudomonas fluorescens KMO (PfKMO) (Pseudomonas fluorescens, UniProt Q84HF5, C252S/C461S)
Qualifying sign: =
Value reported: 5.52
--
Molecule: O=C(O)c1ccc(-c2cccc(Cl)c2Cl)o1 [compound 9]
System name: Pseudomonas fluorescens KMO (PfKMO) (Pseudomonas fluorescens, UniProt Q84HF5, C252S/C461S)
Qualifying sign: =
Value reported: 5.37
